# ASSAY SYSTEM: Beta-lactamase (Pseudomonas aeruginosa (strain ATCC 15692 / PAO1 / 1C / PRS 101 / LMG12228), UniProt P24735)
# Sequence (P24735 whole entry): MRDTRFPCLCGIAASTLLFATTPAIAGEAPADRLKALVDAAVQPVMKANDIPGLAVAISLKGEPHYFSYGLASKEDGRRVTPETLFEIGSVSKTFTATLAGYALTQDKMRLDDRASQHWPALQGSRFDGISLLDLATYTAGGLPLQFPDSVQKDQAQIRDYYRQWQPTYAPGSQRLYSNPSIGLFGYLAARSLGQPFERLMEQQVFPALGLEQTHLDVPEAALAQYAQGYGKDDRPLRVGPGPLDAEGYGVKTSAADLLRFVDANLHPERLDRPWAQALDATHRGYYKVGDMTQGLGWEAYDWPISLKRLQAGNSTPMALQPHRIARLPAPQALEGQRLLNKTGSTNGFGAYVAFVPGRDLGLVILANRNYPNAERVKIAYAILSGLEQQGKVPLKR
# MEASUREMENT DESCRIPTION: Inhibition of Pseudomonas aeruginosa beta lactamase AmpC by spectrophotometry
Lab note: anything with IC50 below 3 µM is marked t; values at 3 µM or higher are marked f.

Is IC50 of O=C(NC1CNCCNC1)N1CC[C@@H]2[C@H]1C(=O)N2S(=O)(=O)O strictly below 3 µM?
f

Is IC50 of O=C(NC1CCCCNCCC1)N1CC[C@@H]2[C@H]1C(=O)N2S(=O)(=O)O (stereo in doubt; 13) strictly below 3 µM?
f

Is IC50 of O=C(NC1CCCNCCC1)N1CC[C@@H]2[C@H]1C(=O)N2S(=O)(=O)O strictly below 3 µM?
f

Is IC50 of O=C(NC1CCCCNCCC1)N1CC[C@@H]2[C@H]1C(=O)N2S(=O)(=O)O (stereo in doubt; 14) strictly below 3 µM?
f

Is IC50 of O=C1NCCCC[C@@H]1NC(=O)N1CC[C@@H]2[C@H]1C(=O)N2S(=O)(=O)O strictly below 3 µM?
t

Is IC50 of O=C(N[C@H]1CCCCNC1)N1CC[C@@H]2[C@H]1C(=O)N2S(=O)(=O)O strictly below 3 µM?
t

Is IC50 of O=C(N[C@H]1CCCNCC1)N1CC[C@@H]2[C@H]1C(=O)N2S(=O)(=O)O strictly below 3 µM?
t

----------
# ASSAY SYSTEM: Beta-lactamase (Pseudomonas aeruginosa (strain ATCC 15692 / PAO1 / 1C / PRS 101 / LMG12228)) (UniProt P24735)
# Sequence (P24735 27-397 limits assumed): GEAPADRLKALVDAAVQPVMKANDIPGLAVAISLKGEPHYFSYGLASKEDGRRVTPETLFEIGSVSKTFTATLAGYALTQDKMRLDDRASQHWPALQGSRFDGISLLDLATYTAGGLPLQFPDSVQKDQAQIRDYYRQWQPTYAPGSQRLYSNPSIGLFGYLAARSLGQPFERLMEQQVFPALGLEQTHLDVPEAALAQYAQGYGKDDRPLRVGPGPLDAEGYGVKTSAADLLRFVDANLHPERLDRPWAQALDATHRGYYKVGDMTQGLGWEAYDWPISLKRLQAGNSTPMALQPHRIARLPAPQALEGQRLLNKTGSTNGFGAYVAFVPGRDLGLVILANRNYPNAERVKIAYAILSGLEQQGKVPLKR
# MEASUREMENT DESCRIPTION: Inhibition of Pseudomonas aeruginosa CL5701 beta lactamase AmpC assessed as concentration required to reduce imipenem MIC
For each entry below, report its log10 of Activity value.
Hey, these are logged values: log10 of Activity, µM being the unit before logging.

Supply log10 of Activity value. Item: O=C(NC1CCCNCCC1)N1CC[C@@H]2[C@H]1C(=O)N2S(=O)(=O)O
1.40

Supply log10 of Activity value. Item: O=C(N[C@H]1CNCCOC1)N1CC[C@@H]2[C@H]1C(=O)N2S(=O)(=O)O
1.70

Supply log10 of Activity value. Item: O=C(NC1CCNCC1)N1CC[C@@H]2[C@H]1C(=O)N2S(=O)(=O)O
1.32

Supply log10 of Activity value. Item: O=C(N[C@H]1CCCNCC1)N1CC[C@@H]2[C@H]1C(=O)N2S(=O)(=O)O
0.97

Supply log10 of Activity value. Item: O=C(N[C@H]1CCCCNC1)N1CC[C@@H]2[C@H]1C(=O)N2S(=O)(=O)O
1.70

Supply log10 of Activity value. Item: O=C(NC1CNCCNC1)N1CC[C@@H]2[C@H]1C(=O)N2S(=O)(=O)O
2.00

Supply log10 of Activity value. Item: O=C(N[C@@H]1CCCNCC1)N1CC[C@@H]2[C@H]1C(=O)N2S(=O)(=O)O
1.40

Supply log10 of Activity value. Item: O=C(NC1CCCCNCC1)N1CC[C@@H]2[C@H]1C(=O)N2S(=O)(=O)O (single isomer, unassigned)
1.10

Supply log10 of Activity value. Item: O=C(N[C@@H]1CNCCOC1)N1CC[C@@H]2[C@H]1C(=O)N2S(=O)(=O)O
1.40

Every entry's value here was drawn from ChEMBL document CHEMBL1159072.
